Test: activity coefficient (dimensionless); of the first substance listed, at infinite dilution; xn = mol fraction of the nth substance listed
Conditions: 333.15 K; 101.33 kPa; Liquid; Chromatography; x1 = 0
# cutoff 1 applies to activity coefficient; >= gives class 1, < gives class 0

[[record]]
compound = "c1ccccc1 [benzene] + CCC[n+]1ccn(C)c1.[Br-]"
grouplabel = "class 1"

[[record]]
compound = "CCCCCCCCC [nonane] + CCC[n+]1ccn(C)c1.[Br-]"
grouplabel = "class 1"

[[record]]
compound = "C1CCCCC1 [cyclohexane] + CCC[n+]1ccn(C)c1.[Br-]"
grouplabel = "class 1"

[[record]]
compound = "C1COCCO1 [1,4-dioxane] + CCC[n+]1ccn(C)c1.[Br-]"
grouplabel = "class 1"

[[record]]
compound = "CCCCCCCC [octane] + CCC[n+]1ccn(C)c1.[Br-]"
grouplabel = "class 1"

[[record]]
compound = "Cc1ccccc1C [1,2-dimethylbenzene] + CCC[n+]1ccn(C)c1.[Br-]"
grouplabel = "class 1"

[[record]]
compound = "CCCCO [butan-1-ol] + CCC[n+]1ccn(C)c1.[Br-]"
grouplabel = "class 0"

[[record]]
compound = "CC(C)CCO [3-methylbutan-1-ol] + CCC[n+]1ccn(C)c1.[Br-]"
grouplabel = "class 0"

[[record]]
compound = "CC(C)CO [2-methyl-1-propanol] + CCC[n+]1ccn(C)c1.[Br-]"
grouplabel = "class 0"

[[record]]
compound = "CC(C)CC(C)(C)C [2,2,4-trimethylpentane] + CCC[n+]1ccn(C)c1.[Br-]"
grouplabel = "class 1"

[[record]]
compound = "ClC(Cl)Cl [trichloromethane] + CCC[n+]1ccn(C)c1.[Br-]"
grouplabel = "class 0"


All values here come from the NIST ThermoML archive (doi:10.1016/j.jct.2018.09.023).
